Test: Volume of distribution at steady state in beagle dog at 1 mg/kg, iv
Type: ADME, organism-based, Canis lupus familiaris
Parameters: dose 1 mg/kg, route intravenous
Settings: in vivo, read-out: Vdss
reportedEndpoint: Vd (L/kg)
Use L/kg as the unit, but write only the number.

Noted for CN1CCN(CCCS(=O)(=O)c2ccc3nc(NC(=O)NC(=O)c4ccccc4Cl)sc3c2)CC1 : its Vd reads 4

----------
Test: Displacement of [125I]human ghrelin from mouse GHS-R1a expressed in HEK cell membranes after 60 mins by gamma counting method
Details: hek293
reportedEndpoint: IC50 (nM)
Use nM as the unit, but write only the number.

Reference set, count: 2
- CN1CCN(CCCS(=O)(=O)c2ccc3nc(NC(=O)NC(=O)c4cc(N5CCOCC5)ccc4Cl)sc3c2)CC1: 1.1
- CN1CCC(S(=O)(=O)c2ccc3nc(NC(=O)NC(=O)c4cc(N5CCOCC5)ccc4Cl)sc3c2)CC1: 39

Noted for CN1CCN(CCCS(=O)(=O)c2ccc3nc(NC(=O)NC(=O)c4ccccc4Cl)sc3c2)CC1 : its IC50 reads 4.9

----------
// values below are reported logD
Assay: Lipophilicity, logD of the compound
Format: physicochemical
Conditions: octanol/water
A bare number is all that is needed in reply.

Reference set, count: 5
• CN1CCN(CCCS(=O)(=O)c2ccc3nc(NC(=O)NC(=O)c4cc(-n5cccn5)ccc4Cl)sc3c2)CC1 = 2
• CN1CCC(S(=O)(=O)c2ccc3nc(NC(=O)NC(=O)c4cc(N5CCCC5)ccc4Cl)sc3c2)CC1 = 3.1
• CCOc1ccc(Cl)c(C(=O)NC(=O)Nc2nc3ccc(S(=O)(=O)CCCN4CCN(C)CC4)cc3s2)c1 = 2.4
• C#Cc1ccc(Cl)c(C(=O)NC(=O)Nc2nc3ccc(S(=O)(=O)CCCN4CCN(C)CC4)cc3s2)c1 = 2.3
• Cc1ccn(-c2ccc(C(=O)NC(=O)Nc3nc4ccc(S(=O)(=O)CCCN5CCN(C)CC5)cc4s3)c(Cl)c2)n1 = 2.6

Noted for CCc1ccc(Cl)c(C(=O)NC(=O)Nc2nc3ccc(S(=O)(=O)CCCN4CCN(C)CC4)cc3s2)c1 : its logD reads 2.9

Noted for CN1CCN(CCCS(=O)(=O)c2ccc3nc(NC(=O)NC(=O)c4cc(N5CCOCC5)ccc4Cl)sc3c2)CC1 : its logD reads 1.7

Noted for O=C(NC(=O)c1ccccc1Cl)Nc1nc2ccc(S(=O)(=O)CCN3CCCC3)cc2s1 : its logD reads 2.7

----------
System: MDR1
Test: Apparent permeability in MDCK cells expressing MDR1 at 10 uM assessed as apical to basolateral side transport
Type: ADME, cell-based, Canis lupus familiaris
Details: dog
// values below are reported Papp A→B at 10 µM
Use ×10⁻⁶ cm/s as the unit, but write only the number.

• CN1CCN(CCCS(=O)(=O)c2ccc3nc(NC(=O)NC(=O)c4cccc(-n5cccn5)c4Cl)sc3c2)CC1 = 0.91

Noted for CN1CCN(CCCS(=O)(=O)c2ccc3nc(NC(=O)NC(=O)c4cc5c(ccn5C)cc4Cl)sc3c2)CC1 : its Papp A→B at 10 µM reads 3.9

Noted for Cc1cc(C)n(-c2ccc(Cl)c(C(=O)NC(=O)Nc3nc4ccc(S(=O)(=O)CCCN5CCN(C)CC5)cc4s3)c2)n1 : its Papp A→B at 10 µM reads 0.44

Noted for CN1CCCN(CCCS(=O)(=O)c2ccc3nc(NC(=O)NC(=O)c4ccccc4Cl)sc3c2)CC1 : its Papp A→B at 10 µM reads 0.7

Noted for CN(C)CCCS(=O)(=O)c1ccc2nc(NC(=O)NC(=O)c3ccccc3Cl)sc2c1 : its Papp A→B at 10 µM reads 13

Noted for CCN(CC)CCCS(=O)(=O)c1ccc2nc(NC(=O)NC(=O)c3cc(-n4cccn4)ccc3Cl)sc2c1 : its Papp A→B at 10 µM reads 0.71

Noted for CN1CCN(CCCS(=O)(=O)c2ccc3nc(NC(=O)NC(=O)c4cc(-n5cccn5)c(Cl)cc4Cl)sc3c2)CC1 : its Papp A→B at 10 µM reads 0.4

Noted for CN1CCC(S(=O)(=O)c2ccc3nc(NC(=O)NC(=O)c4cc(N5CCCC5)c(C#N)cc4Cl)sc3c2)CC1 : its Papp A→B at 10 µM reads 3

Noted for CN1CCC(S(=O)(=O)c2ccc3nc(NC(=O)NC(=O)c4ccccc4Cl)sc3c2)CC1 : its Papp A→B at 10 µM reads 17

Noted for Cc1ccnn1-c1ccc(Cl)c(C(=O)NC(=O)Nc2nc3ccc(S(=O)(=O)C4CCN(C)CC4)cc3s2)c1 : its Papp A→B at 10 µM reads 1.1

----------
// values below are reported Vd
Test: Volume of distribution at steady state in CD1 mouse at 2 mg/kg, iv
Assay type: ADME, organism-based
Set-up: dose 2 mg/kg, route intravenous
Details: in vivo, read-out: Vdss
Use L/kg as the unit, but write only the number.

Reference set, count: 2
* CN1CCN(CCCS(=O)(=O)c2ccc3nc(NC(=O)NC(=O)c4cc(N5CCOCC5)ccc4Cl)sc3c2)CC1 | 0.8
* CN1CCN(CCCS(=O)(=O)c2ccc3nc(NC(=O)NC(=O)c4ccccc4Cl)sc3c2)CC1 | 4.5

API: the following record is the query input.
Noted for CN1CCC(S(=O)(=O)c2ccc3nc(NC(=O)NC(=O)c4cc(N5CCOCC5)ccc4Cl)sc3c2)CC1 : its Vd reads 0.4

----------
Test: Oral bioavailability in CD1 mouse at 7 mg/kg
Assay type: ADME, organism-based
Details: in vivo
reportedEndpoint: bioavailability (%)
Use % as the unit, but write only the number.

Noted for CN1CCC(S(=O)(=O)c2ccc3nc(NC(=O)NC(=O)c4cc(N5CCOCC5)ccc4Cl)sc3c2)CC1 : its bioavailability reads 25

----------
Assay: Unbound fraction in beagle dog plasma
Assay type: ADME, cell-free, Canis lupus familiaris
reportedEndpoint: fraction unbound

Reference set, count: 2
• CN1CCN(CCCS(=O)(=O)c2ccc3nc(NC(=O)NC(=O)c4cc(N5CCOCC5)ccc4Cl)sc3c2)CC1 = 0.0078
• CN1CCN(CCCS(=O)(=O)c2ccc3nc(NC(=O)NC(=O)c4ccccc4Cl)sc3c2)CC1 = 0.096

API: the following record is the query input.
Noted for CN1CCC(S(=O)(=O)c2ccc3nc(NC(=O)NC(=O)c4cc(N5CCOCC5)ccc4Cl)sc3c2)CC1 : its fraction unbound reads 0.016

----------
Assay: Ratio of free drug level in homogenized brain to plasma in Han-Wistar rat measured 1 hr after iv bolus then iv infusion by LC-MS/MS method
Type: ADME, organism-based
Conditions: read-out: BPR
reportedEndpoint: Kp uu at 1 h
A bare number is all that is needed in reply.

• CN1CCN(CCCS(=O)(=O)c2ccc3nc(NC(=O)NC(=O)c4cc(C5CC5)ccc4Cl)sc3c2)CC1 = 1.2

Noted for CN1CCN(CCCS(=O)(=O)c2ccc3nc(NC(=O)NC(=O)c4cc5c(ccn5C)cc4Cl)sc3c2)CC1 : its Kp uu at 1 h reads 0.04

Noted for CCOc1ccc(Cl)c(C(=O)NC(=O)Nc2nc3ccc(S(=O)(=O)CCCN4CCN(C)CC4)cc3s2)c1 : its Kp uu at 1 h reads 0.52

Noted for CCc1ccc(Cl)c(C(=O)NC(=O)Nc2nc3ccc(S(=O)(=O)CCCN4CCN(C)CC4)cc3s2)c1 : its Kp uu at 1 h reads 0.04

----------
Experiment: Ratio of drug level in homogenized brain to plasma in CD1 mouse at 0.9 mg/kg, po measured after 6 hrs by LC-MS/MS method
Assay type: ADME, organism-based
Parameters: dose 0.9 mg/kg, route oral
Conditions: read-out: BPR
reportedEndpoint: Kp at 6 h
A bare number is all that is needed in reply.

Noted for CN1CCC(S(=O)(=O)c2ccc3nc(NC(=O)NC(=O)c4cc(N5CCCC5)c(C#N)cc4Cl)sc3c2)CC1 : its Kp at 6 h reads 0.072

----------
// values below are reported clearance
Assay: Clearance in Han-Wistar rat at 2 mg/kg, iv
Format: ADME, organism-based
Design: dose 2 mg/kg, route intravenous
Conditions: in vivo
Use mL/min/kg as the unit, but write only the number.

- CN1CCC(S(=O)(=O)c2ccc3nc(NC(=O)NC(=O)c4cc(N5CCOCC5)ccc4Cl)sc3c2)CC1: 1.9
- CN1CCN(CCCS(=O)(=O)c2ccc3nc(NC(=O)NC(=O)c4cc(N5CCOCC5)ccc4Cl)sc3c2)CC1: 2.6

API: the following record is the query input.
Noted for CN1CCN(CCCS(=O)(=O)c2ccc3nc(NC(=O)NC(=O)c4ccccc4Cl)sc3c2)CC1 : its clearance reads 24

----------
Assay: Ratio of free drug level in homogenized brain to plasma in CD1 mouse measured 6 hrs after oral dosing by LC-MS/MS method
Assay type: ADME
reportedEndpoint: Kp uu at 6 h

Noted for CN1CCC(S(=O)(=O)c2ccc3nc(NC(=O)NC(=O)c4cc(N5CCCC5)c(C#N)cc4Cl)sc3c2)CC1 : its Kp uu at 6 h reads 0.38

Noted for Cc1ccnn1-c1ccc(Cl)c(C(=O)NC(=O)Nc2nc3ccc(S(=O)(=O)C4CCN(C)CC4)cc3s2)c1 : its Kp uu at 6 h reads 0.61

Noted for CN1CCC(S(=O)(=O)c2ccc3nc(NC(=O)NC(=O)c4cc5c(cc4Cl)CCN5C)sc3c2)CC1 : its Kp uu at 6 h reads 0.072
